// provenance: patent US7183252B2

# MEASURED TARGET: thrombin receptor (PAR-1) (Homo sapiens, UniProt P25116)
# Construct: CHRF membranes (Jones, Biochim. Biophys. Acta 1992, 1136, 272) are thawed from −70° C; endogenous in cells
# Sequence (P25116 22-425): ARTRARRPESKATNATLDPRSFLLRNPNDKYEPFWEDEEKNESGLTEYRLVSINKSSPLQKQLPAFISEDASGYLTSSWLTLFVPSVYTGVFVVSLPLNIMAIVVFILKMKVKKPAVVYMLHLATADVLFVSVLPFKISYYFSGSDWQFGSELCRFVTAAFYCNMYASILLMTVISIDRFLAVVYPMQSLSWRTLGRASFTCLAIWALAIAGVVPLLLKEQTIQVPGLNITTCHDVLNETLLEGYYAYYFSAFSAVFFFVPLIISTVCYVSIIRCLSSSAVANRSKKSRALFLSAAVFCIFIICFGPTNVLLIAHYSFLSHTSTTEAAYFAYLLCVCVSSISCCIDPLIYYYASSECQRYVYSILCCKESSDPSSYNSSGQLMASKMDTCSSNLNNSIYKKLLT
# PROTOCOL DETAILS: In vitro thrombin receptor binding assay (CHRF membranes)
# CONDITIONS: tritiated 721-40 radioligand, read-out: Bndg IC50 (Thrombin receptor binding)
pIC50: −log10 of the molar value.
pIC50 vs 6: at or above is Met, below is Not met.

- N=C(N)NCCC[C@H](NC(=O)[C@H](Cc1ccc(F)c(F)c1)NC(=O)Nc1ccc2c(CN3CCCC3)cn(Cc3c(Cl)cccc3Cl)c2c1)C(=O)NCc1ccccc1: Met
- COc1ccc(C[C@H](NC(=O)Nc2ccc3c(CN4CCCC4)cn(Cc4ccc(OC)cc4)c3c2)C(=O)N[C@@H](CCCNC(=N)N)C(=O)NCc2ccccc2)cc1: Not met
- COC(=O)c1ccc(Cn2cc(CN3CCCCC3)c3ccc(NC(=O)N[C@@H](Cc4ccc(OC)cc4)C(=O)N[C@@H](CCCN=C(N)N)C(=O)NCC4CCCCC4)cc32)cc1: Not met
- NCCCC[C@H](NC(=O)[C@H](Cc1ccc(F)c(F)c1)NC(=O)Nc1ccc2c(CN3CCCC3)cn(Cc3c(Cl)cccc3Cl)c2c1)C(=O)NCc1ccccc1: Met
- COc1ccc(C[C@H](NC(=O)Nc2ccc3c(CN4CCCC4)cn(Cc4ccc(C)cc4)c3c2)C(=O)N[C@@H](CCCN=C(N)N)C(=O)NCc2ccccc2)cc1: Not met
- CCOC(=O)N1CCC(NC(=O)[C@H](CCN)NC(=O)[C@H](Cc2ccc(F)c(F)c2)NC(=O)Nc2ccc3c(CN4CCCC4)cn(Cc4c(Cl)cccc4Cl)c3c2)CC1: Met
- CN(Cc1ccccc1)C(=O)[C@H](CCCN)NC(=O)[C@H](Cc1ccc(F)c(F)c1)NC(=O)Nc1ccc2c(CN3CCCC3)cn(Cc3c(Cl)cccc3Cl)c2c1: Not met
- N=C(N)NCCC[C@H](NC(=O)[C@H](Cc1ccc(F)c(F)c1)NC(=O)Nc1ccc2c(CN3CCCC3)cn(Cc3c(Cl)cccc3Cl)c2c1)C(=O)NCc1ccncc1: Met

---

# MEASURED TARGET: thrombin receptor (PAR-1) (Homo sapiens)
# Construct: CHRF membranes (Jones, Biochim. Biophys. Acta 1992, 1136, 272) are thawed from −70° C; endogenous in cells
# PROTOCOL DETAILS: In vitro thrombin receptor binding assay (CHRF membranes)
# CONDITIONS: tritiated 721-40 radioligand, read-out: Bndg IC50 (Thrombin receptor binding)
pIC50: −log10 of the molar value.
pIC50 vs 6: at or above is yes, below is no.

* N=C(N)NCCC[C@H](NC(=O)[C@H](Cc1ccc(F)c(F)c1)NC(=O)Nc1ccc2c(CN3CCCC3)cn(Cc3ccccc3Cl)c2c1)C(=O)NCc1ccccc1 | no
* N=C(N)NCCC[C@H](NC(=O)[C@H](Cc1ccc(F)cc1)NC(=O)Nc1ccc2c(CN3CCCC3)cn(Cc3ccc(F)cc3)c2c1)C(=O)NCc1ccccc1 | no
* COC[C@H]1CCCN1Cc1cn(Cc2c(Cl)cccc2Cl)c2cc(NC(=O)N[C@@H](Cc3ccc(Cl)cc3)C(=O)N[C@@H](CCCNC(=N)N)C(=O)NCc3ccccc3)ccc12 | yes
* Cc1ccccc1Cn1cc(CN2CCCC2)c2ccc(NC(=O)N[C@H](C(=O)N[C@@H](CCCNC(=N)N)C(=O)NCc3ccccc3)c3ccccc3)cc21 | no
